- method-summary: Plasma protein binding in rat
- Format: ADME, cell-free
- condition-description: read-out: PPB

{"smiles-structure": "COc1cc(F)ccc1Cn1ccc2c3c(ncc21)C(=O)N(O)CC3", "fraction unbound": 0.09}

###

- method-summary: Partition coefficient, pKa of the compound
- Type: physicochemical
- condition-description: octanol/water

{"smiles-structure": "COc1cc(F)ccc1Cn1ccc2c3c(ncc21)C(=O)N(O)CC3", "pKa": 7.6}

###

- method-summary: Plasma protein binding in human
- Format: ADME, cell-free
- condition-description: read-out: PPB (converted)
test-readout: fraction unbound

{"smiles-structure": "COc1cc(F)ccc1Cn1ccc2c3c(ncc21)C(=O)N(O)CC3", "result": 0.08}

###

- method-summary: Volume of distribution at steady state in rat at 2 mg/kg, po and 2 mg/kg, iv
- Assay type: ADME, organism-based
- condition-description: in vivo, read-out: Vdss

{"smiles-structure": "COc1cc(F)ccc1Cn1ccc2c3c(ncc21)C(=O)N(O)CC3", "Vd (L/kg)": 3}

###

- Tested on: Human immunodeficiency virus 1
- method-summary: Antiviral activity against HIV1 UG92037 infected in human PBMC after 5 days by human JC53BL cell-based beta-galactosidase reporter gene assay
- Assay type: functional, organism-based
- condition-description: Human immunodeficiency virus 1, UG92037, JC53BL, 120 h

{"compound": "COc1cc(F)ccc1Cn1ccc2c3c(ncc21)C(=O)N(O)CC3 [PF-04776548]", "EC50, nM": 0.84}

###

// reported solubility for each item listed
- method-summary: Aqueous solubility of the compound at pH 7.4
- Assay type: physicochemical
- condition-description: buffer

{"smiles-structure": "COCCNC(=O)c1c(O)c2ncc3c(ccn3Cc3ccc(F)cc3)c2[nH]c1=O", "solubility": "< 1 µg/mL"}
{"smiles-structure": "O=C(NCCO)c1c(O)c2ncc3c(ccn3Cc3ccc(F)cc3)c2[nH]c1=O", "solubility": "< 1 µg/mL"}

###

- method-summary: Clearance in dog hepatocytes assessed per million of cells
- Type: ADME, cell-based, Canis lupus familiaris, Hepatocyte
- condition-description: read-out: CLH
test-readout: hepatocyte CLint (µL/min/1e6 cells)

{"smiles-structure": "COc1cc(F)ccc1Cn1ccc2c3c(ncc21)C(=O)N(O)CC3", "number": 17}

###

- method-summary: Volume of distribution at steady state in dog at 0.1 mg/kg, iv
- Assay type: ADME, organism-based, Canis lupus familiaris
- Set-up: dose 0.1 mg/kg, route intravenous
- condition-description: in vivo, read-out: Vdss
test-readout: Vd (L/kg)

{"smiles-structure": "COc1cc(F)ccc1Cn1ccc2c3c(ncc21)C(=O)N(O)CC3", "measurement-unit": "L/kg", "number": 2}

###

- method-summary: Half life in rat at 2 mg/kg, po and 2 mg/kg, iv
- Assay type: ADME, organism-based
- condition-description: in vivo
test-readout: half-life

{"smiles-structure": "COc1cc(F)ccc1Cn1ccc2c3c(ncc21)C(=O)N(O)CC3", "test-readout": "half-life", "result": "18 min"}

###

- method-summary: Intrinsic clearance in human liver microsomes assessed per mg of protein by LC-MS/MS analysis
- Type: ADME
- condition-description: read-out: CLH
test-readout: microsomal CLint (µL/min/mg)

{"compound": "Cc1nc2c(ncc3c2ccn3Cc2ccc(F)cc2)c(=O)n1O", "test-readout": "microsomal CLint", "measurement-unit": "µL/min/mg", "sign": "=", "number": 21.3}
{"compound": "COc1cc(Cn2ccc3c4c(ncc32)C(=O)N(O)CC4)ccc1F", "test-readout": "microsomal CLint", "measurement-unit": "µL/min/mg", "sign": "=", "number": 12.5}
{"compound": "COCCNC(=O)c1c(O)c2ncc3c(ccn3Cc3ccc(F)cc3)c2[nH]c1=O", "test-readout": "microsomal CLint", "measurement-unit": "µL/min/mg", "sign": "=", "number": 32}
{"compound": "O=C(NCCO)c1c(O)c2ncc3c(ccn3Cc3ccc(F)cc3)c2[nH]c1=O", "test-readout": "microsomal CLint", "measurement-unit": "µL/min/mg", "sign": "=", "number": 17.3}
{"compound": "COc1cc(F)ccc1Cn1ccc2c3c(ncc21)C(=O)N(O)CC3 [PF-04776548]", "test-readout": "microsomal CLint", "measurement-unit": "µL/min/mg", "sign": "=", "number": 8.3}
{"compound": "O=C1c2ncc3c(ccn3Cc3ccc(F)cc3OC(F)F)c2CCN1O", "test-readout": "microsomal CLint", "measurement-unit": "µL/min/mg", "sign": "=", "number": 15.4}
{"compound": "O=C1c2ncc3c(ccn3Cc3ccc(F)cc3)c2CCN1O", "test-readout": "microsomal CLint", "measurement-unit": "µL/min/mg", "sign": "=", "number": 19.2}
{"compound": "COc1cc(F)ccc1Cn1ccc2c3c(ncc21)C(=O)N(O)C3(C)C", "test-readout": "microsomal CLint", "measurement-unit": "µL/min/mg", "sign": "<", "number": 8}
{"compound": "CCOc1cc(F)ccc1Cn1ccc2c3c(ncc21)C(=O)N(O)CC3", "test-readout": "microsomal CLint", "measurement-unit": "µL/min/mg", "sign": "<", "number": 8}
{"compound": "COc1cc(F)ccc1Cn1ccc2c3c(ncc21)C(=O)N(O)C(C)(C)C3", "test-readout": "microsomal CLint", "measurement-unit": "µL/min/mg", "sign": "=", "number": 17}
